The reported measurements were obtained from paper PMC7668563.

# Target Under Test: apo-human transferrin (apo-hTf) (Homo sapiens)
# Sequence (P02787 20-698): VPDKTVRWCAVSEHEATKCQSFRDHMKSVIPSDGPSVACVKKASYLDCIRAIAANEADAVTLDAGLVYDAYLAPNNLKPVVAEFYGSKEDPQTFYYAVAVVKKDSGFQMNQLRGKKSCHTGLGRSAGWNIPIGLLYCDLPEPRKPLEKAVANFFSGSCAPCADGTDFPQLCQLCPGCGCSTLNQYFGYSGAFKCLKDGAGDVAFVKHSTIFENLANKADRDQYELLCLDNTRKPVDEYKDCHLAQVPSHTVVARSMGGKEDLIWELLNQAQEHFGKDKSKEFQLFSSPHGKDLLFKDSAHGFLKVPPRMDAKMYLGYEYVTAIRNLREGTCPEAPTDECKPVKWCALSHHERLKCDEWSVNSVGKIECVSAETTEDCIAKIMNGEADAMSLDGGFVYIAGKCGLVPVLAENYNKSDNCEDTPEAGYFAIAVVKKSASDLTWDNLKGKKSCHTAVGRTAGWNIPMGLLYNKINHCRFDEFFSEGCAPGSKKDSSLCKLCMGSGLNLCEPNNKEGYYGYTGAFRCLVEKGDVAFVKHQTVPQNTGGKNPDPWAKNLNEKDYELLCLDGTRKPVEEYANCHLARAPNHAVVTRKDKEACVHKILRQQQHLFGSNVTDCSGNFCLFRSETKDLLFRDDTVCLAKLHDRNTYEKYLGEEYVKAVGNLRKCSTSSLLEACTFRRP
# Method Summary: Far-UV circular dichroism titration of apo-hTf, secondary structure content
# Condition Notes: compound concentration 0.4 (M)
So I've got a bunch of compounds here, and I need their other secondary structure content of apo-hTf values.
The number alone won't do; follow it with the unit.

Below: 2 compounds and their reported other secondary structure content of apo-hTf.
Enter measured other secondary structure content of apo-hTf, system apo-human transferrin (apo-hTf) (Homo sapiens), for the compound shown: C1CCCC1.C1CCCC1.[Cl][Nb][Cl] [Cp2NbCl2]
19.5%

Param request: other secondary structure content of apo-hTf | system apo-human transferrin (apo-hTf) (Homo sapiens) | item N.N.[Cl][Pt][Cl] [(NH3)2Pt(II)Cl2, cis-diamminedichloroplatinum (II), reference compound]
19.1%

Now consider the entry below.
Print apo-human transferrin (apo-hTf) (Homo sapiens) other secondary structure content of apo-hTf for [Cl-].[Cl-].[V+4].c1cc[cH-]c1.c1cc[cH-]c1 [Cp2VCl2] .
20%

----------
# Target Under Test: apo-human transferrin (apo-hTf) (Homo sapiens)
# Method Summary: Fluorescence resonance energy transfer
# Assay type: binding
# Condition Notes: room temperature, 1.0×10^−5 mol L^−1 each
Measured Metric: efficiency of energy transfer E
Give bare numbers.

These solved cases illustrate the format of a correct answer.
Fetch value of efficiency of energy transfer E on apo-human transferrin (apo-hTf) (Homo sapiens) for C1CCCC1.C1CCCC1.[Cl][W][Cl] .
0.15

Specify the recorded efficiency of energy transfer E for C1CCCC1.C1CCCC1.[Cl][Nb][Cl] , system: apo-human transferrin (apo-hTf) (Homo sapiens).
0.26

Go through the items and report each one's efficiency of energy transfer E.
1. [Cl][Zr+2][Cl].c1cc[cH-]c1.c1cc[cH-]c1
2. N.N.[Cl][Pt][Cl] [(NH3)2Pt(II)Cl2, cis-diamminedichloroplatinum (II), reference compound]
3. [Cl-].[Cl-].[Mo+4].c1cc[cH-]c1.c1cc[cH-]c1
4. [Cl-].[Cl-].[Ti+4].c1cc[cH-]c1.c1cc[cH-]c1 [Cp2TiCl2, titanocene dichloride]
5. [Cl-].[Cl-].[V+4].c1cc[cH-]c1.c1cc[cH-]c1
6. [Cl-].[Cl-].[Hf+4].c1cc[cH-]c1.c1cc[cH-]c1

[0.129, 0.118, 0.162, 0.144, 0.281, 0.131]

----------
# Target Under Test: apo-human transferrin (apo-hTf) (Homo sapiens)
# Method Summary: Fluorescence quenching of apo-hTf
# Assay type: binding
# Condition Notes: 310 K, pH 7.4
Measured Metric: Stern-Volmer quenching constant Ksv (M⁻¹)
Numbers only, in M⁻¹.

Here is how some compounds turned out for Stern-Volmer quenching constant Ksv.
Identify measured Stern-Volmer quenching constant Ksv corresponding to [Cl][Zr+2][Cl].c1cc[cH-]c1.c1cc[cH-]c1 [Cp2ZrCl2]
1790

Please list Stern-Volmer quenching constant Ksv recorded for the compound [Cl-].[Cl-].[Ti+4].c1cc[cH-]c1.c1cc[cH-]c1 [Cp2TiCl2, titanocene dichloride]
1760

Hi! Can you tell me Stern-Volmer quenching constant Ksv for each of these compounds?
1. [Cl-].[Cl-].[Hf+4].c1cc[cH-]c1.c1cc[cH-]c1 [Cp2HfCl2]
2. C1CCCC1.C1CCCC1.[Cl][Nb][Cl] [Cp2NbCl2]

[1360, 30560]

Give me Stern-Volmer quenching constant Ksv for each of these compounds, listed below.
1. N.N.[Cl][Pt][Cl] [(NH3)2Pt(II)Cl2, cis-diamminedichloroplatinum (II), reference compound]
2. [Cl-].[Cl-].[Mo+4].c1cc[cH-]c1.c1cc[cH-]c1 [Cp2MoCl2]

980
1810

Batch of 2 compounds: report Stern-Volmer quenching constant Ksv for each.
1. [Cl-].[Cl-].[V+4].c1cc[cH-]c1.c1cc[cH-]c1 [Cp2VCl2]
2. C1CCCC1.C1CCCC1.[Cl][W][Cl] [Cp2WCl2]

42600
1890
